# tested on: Interleukin-1 receptor-associated kinase 4 (Homo sapiens, UniProt Q9NWZ3)
# Sequence (Q9NWZ3 whole entry): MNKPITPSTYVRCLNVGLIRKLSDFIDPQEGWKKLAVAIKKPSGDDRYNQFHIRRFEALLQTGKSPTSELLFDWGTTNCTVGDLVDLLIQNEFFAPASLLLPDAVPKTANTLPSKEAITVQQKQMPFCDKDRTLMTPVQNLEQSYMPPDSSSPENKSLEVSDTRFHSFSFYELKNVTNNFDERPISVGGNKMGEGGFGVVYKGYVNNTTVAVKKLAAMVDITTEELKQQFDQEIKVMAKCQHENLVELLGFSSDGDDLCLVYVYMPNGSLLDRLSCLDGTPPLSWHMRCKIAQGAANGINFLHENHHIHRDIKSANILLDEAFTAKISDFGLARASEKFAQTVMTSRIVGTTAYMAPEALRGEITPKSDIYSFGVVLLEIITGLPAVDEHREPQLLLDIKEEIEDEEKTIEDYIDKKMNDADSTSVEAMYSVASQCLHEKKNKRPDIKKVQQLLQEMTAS
# procedure details: IRAK4 Inhibition Assay: The assays were performed in U-bottom 384-well plates. The final assay volume was 30 μL prepared from 15 μL additions of enzyme and substrates (fluoresceinated peptide and ATP) and test compounds in assay buffer (20 mM HEPES pH 7.2, 10 mM MgCl2, 0.015% Brij 35 and 4 mM DTT). The reaction was initiated by the combination of IRAK4 with substrates and test compounds. The reaction mixture was incubated at room temperature for 60 min. and terminated by adding 45 μL of 35 mM EDTA to each sample. The reaction mixture was analyzed on the Caliper LABCHIP® 3000 (Caliper, Hopkinton, Mass.) by electrophoretic separation of the fluorescent substrate and phosphorylated product. Inhibition data were calculated by comparison to no enzyme control reactions for 100% inhibition and vehicle-only reactions for 0% inhibition. The final concentrations of reagents in the assays are ATP, 500 μM; FL-IPTSPITTTYFFFKKK peptide 1.5 μM; IRAK4, 0.6 nM; and DMSO, 1.6%.
metric name: pIC50
In textbook form, pIC50 equals minus log to base ten of the concentration in mol/L.

Below, 3 molecules whose answers are already recorded.
>  <cpd smiles>
CC1(Nc2cc(-c3cnc4cc(Cl)cnn34)ncc2C(=O)NC[C@H](F)C(C)(C)O)CC1

>  <pIC50>
8.70

$$$$
>  <cpd smiles>
COC(C)(C)[C@H]1CC[C@H](NC(=O)c2cnc(-c3cnc4cc(Cl)cnn34)cc2NC2COC2)CC1

>  <pIC50>
8.15

$$$$
>  <cpd smiles>
CC(C)(O)[C@H](F)CNC(=O)c1cnc(-c2cnn3cc(Cl)cnc23)cc1NC12CC(C1)C2

>  <pIC50>
8.05

$$$$

Continue with the next molecule.
Please report the recorded pIC50 for CC(C)(O)[C@H](F)CNC(=O)c1cnc(-c2cnn3cc(C#N)cnc23)cc1NC1CCC1 .
8.70

###

# tested on: Interleukin-1 receptor-associated kinase 4 (Homo sapiens, UniProt Q9NWZ3)
# procedure details: IRAK4 Inhibition Assay: The assays were performed in U-bottom 384-well plates. The final assay volume was 30 μL prepared from 15 μL additions of enzyme and substrates (fluoresceinated peptide and ATP) and test compounds in assay buffer (20 mM HEPES pH 7.2, 10 mM MgCl2, 0.015% Brij 35 and 4 mM DTT). The reaction was initiated by the combination of IRAK4 with substrates and test compounds. The reaction mixture was incubated at room temperature for 60 min. and terminated by adding 45 μL of 35 mM EDTA to each sample. The reaction mixture was analyzed on the Caliper LABCHIP® 3000 (Caliper, Hopkinton, Mass.) by electrophoretic separation of the fluorescent substrate and phosphorylated product. Inhibition data were calculated by comparison to no enzyme control reactions for 100% inhibition and vehicle-only reactions for 0% inhibition. The final concentrations of reagents in the assays are ATP, 500 μM; FL-IPTSPITTTYFFFKKK peptide 1.5 μM; IRAK4, 0.6 nM; and DMSO, 1.6%.
Listed here: items and their measured pIC50.
Hey, just a heads up that pIC50 is the negative log base 10 of the concentration in molar.

Some molecules with known pIC50 results, for comparison:
>  <molecule>
CC(C)(O)[C@H](F)CNC(=O)c1cnc(-c2cnn3cc(C#N)cnc23)cc1Nc1ccn(CC(F)F)c1

>  <pIC50>
8.70

$$$$
>  <molecule>
CCCNc1cc(-c2cnn3cc(Cl)cnc23)ncc1C(=O)NC[C@@H](F)C(C)(C)O

>  <pIC50>
8.30

$$$$
>  <molecule>
CC(C)(O)[C@H](F)CNC(=O)c1cnc(-c2cnn3cc(C#N)cnc23)cc1Nc1ccc(C(N)=O)cc1

>  <pIC50>
9.00

$$$$
>  <molecule>
CC(=O)N[C@H]1CC[C@H](NC(=O)c2cnc(-c3cnn4cc(C#N)cnc34)cc2NC(C)C)CC1

>  <pIC50>
7.82

$$$$
>  <molecule>
CC(C)(O)[C@H](F)CNC(=O)c1cnc(-c2cnn3cc(C#N)cnc23)cc1NC1CCC(F)(F)C1O (stereo partly drawn)

>  <pIC50>
7.89

$$$$

Item CC(C)(C)Nc1cc(-c2cnc3cc(C#N)cnn23)ncc1C(=O)NC[C@@H](F)C(C)(C)O has what recorded pIC50?
8.70

Follow-up entry: CC(C)(F)CNc1cc(-c2cnn3cc(C#N)cnc23)ncc1C(=O)NC[C@@H](F)C(C)(C)O
7.92

Subsequent entry: CC(C)(O)[C@H](F)CNC(=O)c1cnc(-c2cnn3cc(Cl)cnc23)cc1Nc1ccn(CC(F)F)c1
8.70
